# test.system: human follicle-stimulating hormone receptor (FSHR) (Homo sapiens, UniProt P23945)
# Construct: host or cells: CHO-K1
# Sequence (P23945 18-695): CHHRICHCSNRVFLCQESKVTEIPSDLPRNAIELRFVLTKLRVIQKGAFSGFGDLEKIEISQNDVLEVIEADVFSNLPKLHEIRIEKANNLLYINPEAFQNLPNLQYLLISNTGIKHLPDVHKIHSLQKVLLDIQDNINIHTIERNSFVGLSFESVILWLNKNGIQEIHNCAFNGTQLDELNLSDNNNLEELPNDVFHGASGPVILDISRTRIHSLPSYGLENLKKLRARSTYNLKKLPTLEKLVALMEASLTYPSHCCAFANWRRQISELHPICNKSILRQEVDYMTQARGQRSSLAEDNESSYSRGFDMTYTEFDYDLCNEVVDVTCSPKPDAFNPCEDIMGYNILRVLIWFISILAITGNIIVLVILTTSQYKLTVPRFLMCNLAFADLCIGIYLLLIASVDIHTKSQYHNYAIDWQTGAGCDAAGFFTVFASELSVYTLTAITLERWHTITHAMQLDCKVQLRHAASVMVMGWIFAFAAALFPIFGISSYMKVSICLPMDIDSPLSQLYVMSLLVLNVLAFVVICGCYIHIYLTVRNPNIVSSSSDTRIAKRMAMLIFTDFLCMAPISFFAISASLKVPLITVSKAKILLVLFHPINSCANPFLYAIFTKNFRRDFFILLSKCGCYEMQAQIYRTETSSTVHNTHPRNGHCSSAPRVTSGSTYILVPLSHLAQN
# test: Measurement of agonist cAMP production by activation of human FSHR
# Assay type: cell-based
# run.conditions: CHO-K1 human FSHR cells, 30 minutes at 37° C., HTRF cAMP kit; read-out: hFSHR Agonist cAMP EC50
Please provide measured EC50 for the entries that follow.

COc1cc2c(cc1-c1cccc(NC(=O)CN3CCN(CC(=O)O)CCN(CC(=O)O)CCN(CC(=O)O)CC3)c1)-c1c(c(C(=O)N3CCOCC3(C)C)nn1-c1cc(Cl)cc(Cl)c1)CO2 :: > 100 nM

Now for a further compound.
Supply reported EC50 belonging to this compound: "COCCOCCOCCOCCOCCOCCC(=O)N[C@H](CC(=O)N1CC2(CCCN2C(=O)CNC(=O)CN2CCN(CC(=O)O)CCN(CC(=O)O)CCN(CC(=O)O)CC2)C1)C(=O)Nc1cccc(-c2cc3c(cc2OC)OCc2c(C(=O)N4CCOCC4(C)C)nn(-c4cc(Cl)cc(Cl)c4)c2-3)c1"
> 100 nM
